The reported measurements were obtained from PubChem BioAssay (NCI).

Test system: LOX IMVI melanoma
Assay: NCI-60 one-dose screen, 48 h (100 = growth as untreated, 0 = no growth, -100 = all killed)
Conditions: 10 µM unless noted
About 83,000 compounds went through this panel and 20% of them were active in at least one assay; those are over-represented in the sample as a whole. Activity calls are given as the source filed them. How the source made its calls: active means growth percent below 10; inactive means the rest.
measured parameter: growth

Some entries whose results are on file:
| compound | growth |
| --- | --- |
| COc1cc(C(=O)CCCl)ccc1O | 90.5% (inactive) |
| Nc1cccc2c1CN(C1CCC(=O)NC1=O)C2=O (stereo not drawn) | 99.8% (inactive) |

Now, please, on to the next compound.
[in] Please look up its growth: CC(C(=O)n1cc(-c2ccccc2)c(-c2ccccc2)c1)c1ccccc1 (stereo not drawn)
[out] 97.8% (inactive)

----------
Tested on: NCI-H226 lung
Test: NCI-60 one-dose screen, 48 h (100 = growth as untreated, 0 = no growth, -100 = all killed)
Settings: 10 µM unless noted
This is part of a sample that, as a whole, favours compounds with a hit. Of some 83,000 tested, about 20% had one in any assay. The source made the active and inactive calls. How the source made its calls: active means growth percent below 10; inactive means the rest.
Would you kindly list growth for each of these compounds?

Some entries whose results are on file:
| compound | growth |
| --- | --- |
| CCCCCC/C=C\CCCCCCCCOc1ccc(CCOP(=O)(O)OCC[N+](C)(C)C)cc1 | 102% (inactive) |
| Cn1c(C(N)=O)cc2c1-c1nc(NC3CCCCC3)ncc1CCC2 | 70.9% (inactive) |
| CCOC(=O)CC/C(C)=N\Nc1ccc([N+](=O)[O-])cc1 | 67.9% (inactive) |

Quick request: growth for each listed item, please.
1. CN(C)c1ccc(C2CC(c3ccccc3)=NN2/C=C2\SC(=O)NC2=O)cc1 (configuration not stated)
2. C=C1C(=O)O[C@H]2[C@H]1CC/C(COC(=O)NCCc1cccc(OC)c1)=C\CC[C@@]1(C)O[C@@H]21
3. COc1cccc(C2CC(=O)Nc3c2c(C)nn3-c2nc3ccccc3[nH]2)c1OC (configuration not stated)
4. CC(=O)C1CCC(C)=CC1=O (configuration not stated)
5. Clc1nc2ccccc2nc1CI

[out]
["90.4% (inactive)", "41.3% (inactive)", "55.1% (inactive)", "104% (inactive)", "68.2% (inactive)"]

Quick request: growth for each listed item, please.
1. COc1cc2nc(N3CCC[C@@H](NC4=CC(=O)c5ccccc5C4=O)C3)nc(N)c2cc1OC
2. CCN1C(=O)N(CC)C2Nn3c(s/c(=C4\C(=O)N(C5CCCC5)c5ccccc54)c3=O)=NC21 (configuration not stated)
3. O=C(OCCCCOC(=O)n1cnc2ccccc21)n1cnc2ccccc21

[out]
1: 113% (inactive); 2: 91.8% (inactive); 3: 97.4% (inactive)

Quick request: growth for each listed item, please.
1. COc1ccc(-c2nc(-c3ccccc3)c(-c3ccccc3)n2C2CC2)cc1OC1CCCCC1
2. Cc1cc(Nc2nc(-c3ccc(F)cc3)nc3ccccc23)n[nH]1

[out]
1. 94% (inactive)
2. 58.6% (inactive)

Quick request: growth for each listed item, please.
1. O=S(=O)(NCCCNc1cc(-c2cn(-c3ccccc3)nc2-c2cccc(O)c2)ccn1)c1ccc(Cl)cc1
2. CCC(=O)Nc1ccccc1C#C/C=C\C#Cc1ccccc1SC
3. O=C(O)c1cn(C2CC2)c2cc(N3CCN(S(=O)(=O)c4ccc(Cl)c(Cl)c4)CC3)c(F)cc2c1=O
4. Cc1oc2nc[nH]c(=O)c2c1C(=O)/C=C/c1ccc(Cl)cc1

[out]
1: 24.8% (inactive); 2: 76.4% (inactive); 3: 41.4% (inactive); 4: 94% (inactive)
